Measured melting point, listed per entry.

Some solved cases for reference:
>  <molecule>
O=C(c1c[nH]c2cc(F)ccc12)C(F)(F)F

>  <outcome_measure>
melting point

>  <meas_value>
234 to 235 °C

$$$$
>  <molecule>
Cc1nnc(-c2ccnc(Nc3ccc(S(C)(=O)=O)cc3)c2)o1

>  <outcome_measure>
melting point

>  <meas_value>
244 to 245 °C

$$$$
>  <molecule>
CCCCc1ccc2c(c1)Cc1cc(C(C)=O)ccc1-2

>  <outcome_measure>
melting point

>  <meas_value>
102 to 104 °C

$$$$
>  <molecule>
CCCCNC(=O)Nc1ccc(-c2ccncc2)c(C)n1

>  <outcome_measure>
melting point

>  <meas_value>
164 to 165 °C

$$$$

Notebook: CN1Cc2c(Cl)ncn2-c2cccnc2C1=O , melting point read as 247 to 248 °C

Looking up CCCCNc1cc(C(=O)O)cc(S(=O)(=O)NCCCC)c1Oc1ccccc1 , I see its melting point listed as 184 to 185 °C

These data points were gathered from a melting point compilation (Tetko et al.; mined from patent text by program, amines drawn as free bases though some values may be those of a salt).
